- assayed_system: MAL^TIR (Homo sapiens)
- Construct: MAL (residues 79–221); 6xHis; made in house; host or cells: E. coli BL21 (DE3)
- Sequence (P58753 79-221): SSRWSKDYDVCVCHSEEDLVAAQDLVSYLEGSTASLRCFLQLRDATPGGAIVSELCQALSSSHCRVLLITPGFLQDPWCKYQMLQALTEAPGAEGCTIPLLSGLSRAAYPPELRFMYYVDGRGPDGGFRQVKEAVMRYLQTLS
- assay_procedure: T‐Surf phage library (P8 and P3) selection against MAL^TIR, four rounds, NGS read counts
- Assay type: binding
- conditions: P8 library, selection against MAL, rank before grouping
Can you tell me P8_MAL Rank (before) for the items I'm about to list?

Past entries and their recorded results:
DTILKKGESIAPELLG = 2000
WFMMKFRTVLDRVPEV = 1378
ELDFSHFWLFDGEAGGEP = 2048
AFLYTFLLNLTHQPTF = 1831
AFFWAQLKSELGNPSM = 1644
WFYEPLVSVILPDTKV = 1292

List the reported P8_MAL Rank (before) of each sequence below.
1. AFLYPFLINLTHPTIP
2. YFLHFLLFSLPENECI
3. AFFCAQQKSVLRNPTK
4. SLLYDHLRCWAFVRF
5. AFLYAFLISLTHTTTF
6. ALPYTFLINLTHPTTF
7. TFLGAQHKTVVRAATH
8. LFFWESLKNVLRKPGL

[reply]
[1816, 1474, 1725, 2512, 1798, 1961, 2534, 2116]

Hey, just so you know, these numbers are from paper PMC11714206.
